assayedSystem: Anoctamin-1 (Homo sapiens)
procedureDetails: Inhibition of human TMEM16A transfected in FRT cells assessed as iodide influx using YFP-F46L/H148Q/I152L halide sensor after 10 mins by spectrofluorometric analysis
Type: cell-based
setupConditions: read-out: IC50
For each of the compounds below, state its pIC50.
Remember, pIC50 is on a log scale: it is -log10 of the molar concentration.

Query: Look up pIC50 for this compound: Cc1ccc(-c2oc3ccc(OCc4cccc(Cl)c4)cc3c2C(=O)O)cc1
Response: 4.88

Query: Can you handle COc1ccc(-c2oc3ccc(OCc4cccc(F)c4)cc3c2C(=O)O)cc1 next?
Response: 4.54

Query: Can you handle Cc1ccc(-c2oc3ccc(OCc4cccc(C(F)(F)F)c4)cc3c2C(=O)O)cc1 next?
Response: 4.88

Query: Can you handle COc1ccc(-c2oc3ccc(OCc4cccc(-c5ccccc5)c4)cc3c2C(=O)O)cc1 next?
Response: 4.59

Query: Can you handle COc1ccc(-c2oc3ccc(OCc4c(F)cccc4F)cc3c2C(=O)O)cc1 next?
Response: 4.57

###

assayedSystem: Anoctamin-1 (Homo sapiens)
procedureDetails: Inhibition of human TMEM16A transfected in FRT cells assessed as iodide influx using YFP-F46L/H148Q/I152L halide sensor after 10 mins by spectrofluorometric analysis
Format: cell-based
setupConditions: read-out: IC50
pIC50: −log10 of the molar value.
Label scheme for pIC50: lower than 5 is NO, 5 and above is YES.

Query: Given Cc1ccc(-c2oc3ccc(OCc4cccc(F)c4)cc3c2C(=O)O)cc1 , state whether its pIC50 is at least 5.
Response: NO

Query: Can you handle Cc1ccc(-c2oc3ccc(OCc4cccc(-c5ccccc5)c4)cc3c2C(=O)O)cc1 next?
Response: NO

Query: Can you handle COc1ccc(-c2oc3ccc(OCc4ccc(Br)cc4)cc3c2C(=O)O)cc1 next?
Response: NO

Query: Can you handle COc1ccc(-c2oc3ccc(OCc4ccc(F)c(F)c4)cc3c2C(=O)O)cc1 next?
Response: NO

Query: Can you handle Cc1ccc(-c2oc3ccc(OCc4ccc(F)cc4)cc3c2C(=O)O)cc1 next?
Response: NO

Query: Can you handle Cc1ccc(-c2oc3ccc(OCc4ccccc4Br)cc3c2C(=O)O)cc1 next?
Response: YES

Query: Can you handle O=C(O)c1c(-c2ccc3ccccc3c2)oc2ccc(OCc3cccc(-c4ccccc4)c3)cc12 next?
Response: NO

Query: Can you handle O=C(O)c1c(-c2ccc3ccccc3c2)oc2ccc(OCc3ccc(F)cc3)cc12 next?
Response: YES

###

assayedSystem: Anoctamin-1 (Homo sapiens, UniProt Q5XXA6)
Sequence (Q5XXA6 whole entry): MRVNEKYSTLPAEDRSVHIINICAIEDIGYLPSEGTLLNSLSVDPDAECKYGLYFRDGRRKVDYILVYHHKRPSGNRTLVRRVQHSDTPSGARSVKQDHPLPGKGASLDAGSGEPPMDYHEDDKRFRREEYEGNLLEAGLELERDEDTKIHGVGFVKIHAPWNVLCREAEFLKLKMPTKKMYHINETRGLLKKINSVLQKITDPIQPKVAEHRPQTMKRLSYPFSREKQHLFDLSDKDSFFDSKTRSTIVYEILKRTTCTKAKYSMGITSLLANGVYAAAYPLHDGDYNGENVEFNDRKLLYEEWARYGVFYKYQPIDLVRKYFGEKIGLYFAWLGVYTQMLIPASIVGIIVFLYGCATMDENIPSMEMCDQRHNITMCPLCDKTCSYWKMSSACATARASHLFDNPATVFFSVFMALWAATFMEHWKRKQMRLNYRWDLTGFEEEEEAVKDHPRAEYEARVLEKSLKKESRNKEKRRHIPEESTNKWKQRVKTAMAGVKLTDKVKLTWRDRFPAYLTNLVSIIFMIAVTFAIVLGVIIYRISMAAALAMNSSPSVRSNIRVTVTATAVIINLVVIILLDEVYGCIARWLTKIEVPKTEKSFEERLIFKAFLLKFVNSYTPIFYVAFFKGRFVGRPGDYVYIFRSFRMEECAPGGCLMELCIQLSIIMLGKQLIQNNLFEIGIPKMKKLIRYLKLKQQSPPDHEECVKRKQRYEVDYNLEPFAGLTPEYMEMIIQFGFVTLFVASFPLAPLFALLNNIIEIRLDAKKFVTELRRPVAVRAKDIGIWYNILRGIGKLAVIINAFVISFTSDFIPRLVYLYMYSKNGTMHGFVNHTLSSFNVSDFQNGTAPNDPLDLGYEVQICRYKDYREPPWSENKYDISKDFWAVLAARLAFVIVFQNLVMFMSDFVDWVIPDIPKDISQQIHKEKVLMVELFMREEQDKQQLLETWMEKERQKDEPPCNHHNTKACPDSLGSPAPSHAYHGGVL
procedureDetails: Inhibition of human TMEM16A transfected in FRT cells assessed as iodide influx using YFP-F46L/H148Q/I152L halide sensor after 10 mins by spectrofluorometric analysis
Format: cell-based
setupConditions: read-out: IC50
measuredProperty: IC50 (µM)
Value expressed in µM; do not type the unit.

Query: Item: O=C(O)c1c(-c2ccc3ccccc3c2)oc2ccc(OCc3cccc(Cl)c3)cc12 Test system: Anoctamin-1 (Homo sapiens, UniProt Q5XXA6) Read-out: IC50 Value: ?
Response: 7.7

Query: Can you handle O=C(O)c1c(-c2ccc3ccccc3c2)oc2ccc(OCc3cccc(F)c3)cc12 next?
Response: 3.8

Query: Can you handle O=C(O)c1c(-c2ccc3ccccc3c2)oc2ccc(OCc3cccc(I)c3)cc12 next?
Response: 12.3

Query: Can you handle Cc1ccc(-c2oc3ccc(OCc4ccc(Br)cc4)cc3c2C(=O)O)cc1 next?
Response: 3.3

Query: Can you handle O=C(O)c1c(-c2ccc3ccccc3c2)oc2ccc(OCc3ccc(Br)cc3)cc12 next?
Response: 4.9

Query: Can you handle O=C(O)c1c(-c2ccc3ccccc3c2)oc2ccc(OCc3ccc(F)c(F)c3)cc12 next?
Response: 3.2

Query: Can you handle O=C(O)c1c(-c2ccc3ccccc3c2)oc2ccc(OCc3c(F)cccc3F)cc12 next?
Response: 2.8

Query: Can you handle COc1ccc(-c2oc3ccc(OCc4cccc(Cl)c4)cc3c2C(=O)O)cc1 next?
Response: 29.2

Query: Can you handle COc1ccc(-c2oc3ccc(OCc4cccc(I)c4)cc3c2C(=O)O)cc1 next?
Response: 5.9

Query: Can you handle COc1ccc(-c2oc3ccc(OCc4ccc(F)cc4)cc3c2C(=O)O)cc1 next?
Response: 21.2
